Biological target: T1, IL-1β (UniProt P01584 117-269)
T1 construct: Antigen immobilised on the Biacore chip
Assay: Biacore, periplasmic extract
Entries annotated with measured fold difference in affinity vs original
// return numeric value only (unit: fold, not printed)

Look over these answered cases.
- binder: "XPA23 light chain D92N (Fab, V domains shown) VH: EVQLLESGGGLVQPGGSLRLSCAASGFTFSKYFMFWVRQAPGKGLEWVSVISPSGGMTRYADSVKGRFTISRDNSKNTLYLQMNSLRAEDTAVYYCARVGYGGNSDYWGQGTLVTVSS VL: DIQMTQSPSSVSASVGDRLTIICRASQDINRWLAWYQQTPGNAPKLLIHSATSLQSGVPSRFSGSGSGTDFTLTINSLQPEDFATYYCQQANSFPLTFGGGTKVEIK"
  scale.unit: "fold"
  fold difference in affinity vs original: 0.67
- binder: "XPA23 light chain T52Q (Fab, V domains shown) VH: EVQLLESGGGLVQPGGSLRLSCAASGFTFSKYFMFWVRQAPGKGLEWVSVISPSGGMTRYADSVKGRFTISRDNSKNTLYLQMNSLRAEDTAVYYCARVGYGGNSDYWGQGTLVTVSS VL: DIQMTQSPSSVSASVGDRLTIICRASQDINRWLAWYQQTPGNAPKLLIHSAQSLQSGVPSRFSGSGSGTDFTLTINSLQPEDFATYYCQQADSFPLTFGGGTKVEIK"
  scale.unit: "fold"
  fold difference in affinity vs original: 0.83

Turning now to a further record.
Q) Which value of fold difference in affinity vs original has been reported for XPA23 light chain N30Q (Fab, V domains shown) VH: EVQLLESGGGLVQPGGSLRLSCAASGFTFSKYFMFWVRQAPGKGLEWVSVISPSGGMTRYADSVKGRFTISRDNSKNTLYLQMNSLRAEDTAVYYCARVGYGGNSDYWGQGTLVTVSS VL: DIQMTQSPSSVSASVGDRLTIICRASQDIQRWLAWYQQTPGNAPKLLIHSATSLQSGVPSRFSGSGSGTDFTLTINSLQPEDFATYYCQQADSFPLTFGGGTKVEIK in the records?
A) 0.6
